Tested on: HL-60
PROTOCOL_DESCRIPTION: NCI tumour cell line growth inhibition, 48 h
Activity calls are given as the source filed them. Cut-off read from the data, not from the text of the source: active = GI50 up to about 1.1 µM and inactive = higher.
The reply should be one of these categories: Yes for active, No for inactive

Solved entries (count: 3):
# MOLECULE, ASSIGNED_CLASS
measured = [
    ("CCCCCCCCCCCCCC(=O)OCC1OC(n2cc(F)c(=O)[nH]c2=O)C(NC(=O)OCc2ccccc2)C(OC(=O)CCCCCCCCCCCCC)C1O (centres undefined)", "No"),
    ("N=C(N)NS(=O)(=O)c1ccc(Nc2c3ccccc3nc3c(C(=O)NCCO)cccc23)cc1", "Yes"),
    ("COc1ccc(NC(=O)NNS(=O)(=O)c2ccc(C)cc2)cc1", "No"),
]

Which outcome was entered for the molecule C=C1C(=O)O[C@@H]2/C=C(C)/C=C\[C@@H]3O[C@@]3(C)C[C@@H](O)C12 (some centres undefined) in this test?
No
